Test system: Brassica napus
Test: Herbicidal activity against Brassica napus (oilseed rape) assessed as growth inhibition at 10 ug/mL
Assay type: functional
Details: read-out: GI
Rule: inhibition of growth at 10 µg/mL under 8% gives Criterion not met, otherwise Criterion met.

- COMPOUND: "CC(C)(C)N1CC(=O)/C(=C(/O)c2ccc(Cl)cc2)C1=O"
  LABEL: "Criterion met"
- COMPOUND: "Cc1ccccc1/C(O)=C1\\C(=O)CN(C)C1=O"
  LABEL: "Criterion not met"
- COMPOUND: "COc1ccccc1/C(O)=C1\\C(=O)CN(C(C)(C)C)C1=O"
  LABEL: "Criterion met"
- COMPOUND: "CS(=O)(=O)c1ccc(C(=O)C2C(=O)CCCC2=O)c(Cl)c1 [SULCOTRIONE]"
  LABEL: "Criterion not met"
- COMPOUND: "COc1ccccc1/C(O)=C1\\C(=O)CN(C(C)C)C1=O"
  LABEL: "Criterion not met"
- COMPOUND: "CN1CC(=O)/C(=C(/O)c2ccc(Cl)cc2)C1=O"
  LABEL: "Criterion met"
- COMPOUND: "CN1CC(=O)/C(=C(/O)c2ccc([N+](=O)[O-])cc2)C1=O"
  LABEL: "Criterion not met"
- COMPOUND: "Cc1ccccc1/C(O)=C1\\C(=O)CN(C(C)(C)C)C1=O"
  LABEL: "Criterion met"
- COMPOUND: "CC(C)N1CC(=O)/C(=C(/O)c2cccc([N+](=O)[O-])c2)C1=O"
  LABEL: "Criterion met"
- COMPOUND: "Cc1ccc(/C(O)=C2\\C(=O)CN(C(C)(C)C)C2=O)cc1"
  LABEL: "Criterion met"
- COMPOUND: "Cc1cccc(/C(O)=C2\\C(=O)CN(C)C2=O)c1"
  LABEL: "Criterion met"
- COMPOUND: "CN1CC(=O)/C(=C(/O)c2cccc([N+](=O)[O-])c2)C1=O"
  LABEL: "Criterion not met"
- COMPOUND: "CC(C)(C)N1CC(=O)/C(=C(/O)c2ccc([N+](=O)[O-])cc2)C1=O"
  LABEL: "Criterion not met"
- COMPOUND: "Cc1ccccc1/C(O)=C1\\C(=O)CN(C(C)C)C1=O"
  LABEL: "Criterion met"
- COMPOUND: "CC(C)N1CC(=O)/C(=C(/O)c2ccccc2Cl)C1=O"
  LABEL: "Criterion met"
- COMPOUND: "COc1ccc(/C(O)=C2\\C(=O)CN(C(C)C)C2=O)cc1"
  LABEL: "Criterion met"
- COMPOUND: "CC(C)N1CC(=O)/C(=C(/O)c2ccc(Cl)cc2)C1=O"
  LABEL: "Criterion met"
- COMPOUND: "COc1ccc(/C(O)=C2\\C(=O)CN(C(C)(C)C)C2=O)cc1"
  LABEL: "Criterion not met"
- COMPOUND: "CC(C)(C)N1CC(=O)/C(=C(/O)c2cccc([N+](=O)[O-])c2)C1=O"
  LABEL: "Criterion met"
- COMPOUND: "Cc1cccc(/C(O)=C2\\C(=O)CN(C(C)(C)C)C2=O)c1"
  LABEL: "Criterion met"
- COMPOUND: "Cc1cccc(/C(O)=C2\\C(=O)CN(C(C)C)C2=O)c1"
  LABEL: "Criterion not met"
- COMPOUND: "CC(C)N1CC(=O)/C(=C(/O)c2ccc([N+](=O)[O-])cc2)C1=O"
  LABEL: "Criterion not met"
